Reported ka values for the following molecules.
Molecular target: dGA (Homo sapiens, UniProt P10636)
Sequence (P10636 614-707): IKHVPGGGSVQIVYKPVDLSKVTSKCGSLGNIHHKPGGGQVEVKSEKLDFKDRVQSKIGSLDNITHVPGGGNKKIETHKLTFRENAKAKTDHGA
Assay: Biacore X100 SPR binding kinetics of anti-tau scAbs (scAb captured via HuCk), analyte dGA
Conditions: lead scAbs, Table 24
RECORDED ENDPOINT: ka

1) NS2A1: anti-tau clone, SEQ ID NO: 220 (protein, NS2A1 amino acid sequence) scFv: QVQLQESGPSLVKPSQTLSLTCTVSGFSLSTNSVGWVRQAPGKAPEWVAGIDTDGEEGFNPVLKSRLSITRDTSKSQVSLSLSNVTSEDTAVYYCGRSYRTDGLAYGYVQAIDYWGPGLLVTISSEGKSSGASGESKVDDQSVLTQPSSVSGSPGQTVSITCSGSYIGSSGVGWFQQLPGSGLRTIIVASDGRPSGVPDGFSMSKSGNTATLTISSLQAEDEADYFCGSSDRTQYTGLFGSGTRLTVLG	188000 M⁻¹ s⁻¹
2) S1D12: anti-tau binding molecule defined by its CDRs; scAb sequence SEQ ID NO: 32 (protein, S1D12 amino acid sequence) scFv: QVQLQESGPSLVKPSQTLSLTCTVSGFSLNNNAVGWVRQAPGKVPESLVGCSSDGTCYYNSALKSRLDITRDTSKNQISLSLSSVTTDDAAVYYCTRGHYSIYGYDYLGTIDYWGPGLLVTVSSEGKSSGASGESKVDDQAVLTQPSSVSGSLGQRVSITCSGSSSNVGGGNSVGWYQHLPGSGLKTIIYDTNSRPSGVPDRFSGSRSGNTATLTINSLQAEDEGDYYCVTGDSTTHDDLVGSGTRLTVLG	1.21e+06 M⁻¹ s⁻¹
3) CE2: anti-tau clone referred to as CE2 or E1B8, SEQ ID NO: 366 (protein, CE2/E1B8 amino acid sequence) scFv: QVQLQESGPSLVKPSQTLSLTCTVSGFSLTNYPVGWVRQAPGKALEWIGNIENDGSANYASALKSRLSITRDTSKNQVSLSLSSATTEDTAVYYCGREFGGSDGYTYFVDIDYWGPGLLVTVSSEGKSSGASGESKVDDQAVLTQPSSVSKSLGQSVSITCSGSSSNVGYGNYVSWFQQVPGSAPKILIYGATSRASGVPDRFSGSRSGNTATLTITSLQAEDEADYYCASYDGSSSGVFGSGTRLTVLG	137000 M⁻¹ s⁻¹
